Assign Vd to each entry below.
# assay_info: Volume of distribution in dog at 0.5 mg/kg, iv or 2 mg/kg, po
# Type: ADME, organism-based, Canis lupus familiaris
# study_conditions: in vivo
Answers are plain numbers, in L/kg.

Before answering, review these 2 worked examples.
{"columns": ["chemical_structure", "result_value"],
 "data": [
  ["O=C(c1ccc(C[C@@H]2CC[C@H]([C@H](O)c3ccccc3)N2)cc1)N1CCC2(CCOC2=O)CC1", 7.4],
  ["CCc1nnc([C@H]2[C@@H]3CN(C(=O)c4ccc(C[C@@H]5CC[C@H]([C@H](O)c6ccccc6)N5)cc4)C[C@@H]32)o1", 9.2]
]}

Please fill in: Vd reported for Cn1nnc([C@H]2[C@@H]3CN(C(=O)c4ccc(C[C@@H]5CC[C@H]([C@H](O)c6ccccc6)N5)cc4)C[C@@H]32)n1 = 5.5
